Listing of entries alongside the reported MIC.
Tested on: STREPTOCOCCUS PYOGENES EES61
Experiment: In vitro antibacterial activity, MIC, BHI agar dilution
Type: cell-based
Conditions: S. pyogenes EES61, unit assumed
Record the value in µg/mL, omitting the unit from your answer.

- compound: "CCC1OC(=O)C(C)C(=O)C(C)C(OC2OC(C)CC(N(C)C)C2O)C(C)(OC)CC(C)C2=NC(COCSC)CN3C(=O)OC1(C)C3C2C (centres unmarked)"
  measuredMetric: "MIC"
  valueReported: 0.05
- compound: "CC[C@H]1OC(=O)[C@H](C)C(=O)[C@H](C)[C@@H](O[C@@H]2O[C@H](C)C[C@H](N(C)C)[C@H]2O)[C@](C)(OC)C[C@@H](C)C2=N[C@@H]3CCCC[C@@H]3N3C(=O)O[C@@]1(C)[C@H]3[C@H]2C"
  measuredMetric: "MIC"
  valueReported: 0.02
- compound: "CC[C@H]1OC(=O)[C@H](C)C(=O)[C@H](C)[C@@H](O[C@@H]2O[C@H](C)C[C@H](N(C)C)[C@H]2O)[C@](C)(OC)C[C@@H](C)C2=NC[C@H](Cc3ccccc3)N3C(=O)O[C@@]1(C)[C@H]3[C@H]2C"
  measuredMetric: "MIC"
  valueReported: 0.02
- compound: "CC[C@H]1OC(=O)[C@H](C)C(=O)[C@H](C)[C@@H](O[C@@H]2O[C@H](C)C[C@H](N(C)C)[C@H]2O)[C@](C)(OC)C[C@@H](C)C2=N[C@H](COCc3ccccc3Br)CN3C(=O)O[C@@]1(C)[C@H]3[C@H]2C"
  measuredMetric: "MIC"
  valueReported: 0.01
- compound: "CC[C@H]1OC(=O)[C@H](C)C(=O)[C@H](C)[C@@H](O[C@@H]2O[C@H](C)C[C@H](N(C)C)[C@H]2O)[C@](C)(OC)C[C@@H](C)C2=NCC(COC(=O)c3ccccc3)N3C(=O)O[C@@]1(C)[C@H]3[C@H]2C (some centres unmarked)"
  measuredMetric: "MIC"
  valueReported: 0.01
- compound: "CC[C@H]1OC(=O)[C@H](C)C(=O)[C@H](C)[C@@H](O[C@@H]2O[C@H](C)C[C@H](N(C)C)[C@H]2O)[C@](C)(OC)C[C@@H](C)C2=N[C@H](COCc3cccnc3)CN3C(=O)O[C@@]1(C)[C@H]3[C@H]2C"
  measuredMetric: "MIC"
  valueReported: 0.05

Measured MIC, CC[C@H]1OC(=O)[C@H](C)C(=O)[C@H](C)[C@@H](O[C@@H]2O[C@H](C)C[C@H](N(C)C)[C@H]2O)[C@](C)(OC)C[C@@H](C)C2=N[C@H](CO)CN3C(=O)O[C@@]1(C)[C@H]3[C@H]2C : 0.05

The compound identified as CC[C@H]1OC(=O)[C@H](C)C(=O)[C@H](C)[C@@H](O[C@@H]2O[C@H](C)C[C@H](N(C)C)[C@H]2O)[C@](C)(OC)C[C@@H](C)C2=NC[C@H](COC(=O)c3ccncc3)N3C(=O)O[C@@]1(C)[C@H]3[C@H]2C registered its MIC at 0.02

###

Measured MIC values are reported for all entries that follow.
Test system: STREPTOCOCCUS PYOGENES EES61
Test: In vitro antibacterial activity, MIC, BHI agar dilution
Type: cell-based
Conditions: S. pyogenes EES61, unit assumed
Numbers only here, please. The scale is µg/mL.

- compound: "CCC1OC(=O)C(C)C(=O)C(C)C(OC2OC(C)CC(N(C)C)C2O)C(C)(OC)CC(C)C2=NC(CN3CCCCC3)CN3C(=O)OC1(C)C3C2C (stereo not drawn) [Example 96]"
  valueReported: 0.02
- compound: "CC[C@H]1OC(=O)[C@H](C)C(=O)[C@H](C)[C@@H](O[C@@H]2O[C@H](C)C[C@H](N(C)C)[C@H]2O)[C@](C)(OC)C[C@@H](C)C2=NCC(COC(=O)c3cc4ccccc4n3C)N3C(=O)O[C@@]1(C)[C@H]3[C@H]2C (stereo partly drawn) [Example 143]"
  valueReported: 0.02

Shifting focus to the compound that follows.
The observed MIC for CC[C@H]1OC(=O)[C@H](C)C(=O)[C@H](C)[C@@H](O[C@@H]2O[C@H](C)C[C@H](N(C)C)[C@H]2O)[C@](C)(OC)C[C@@H](C)C2=NC[C@H](Cc3ccc(OCc4ccccc4)cc3)N3C(=O)O[C@@]1(C)[C@H]3[C@H]2C [Example 64] when tested with STREPTOCOCCUS PYOGENES EES61 stands at 0.05
